- Experiment: reversal of MRP1-mediated doxorubicin resistance, pilot screen, H69AR cells, doxorubicin co-treatment (AID 601)
- Condition context: H69AR cells + 2 uM doxorubicin, CellTiter-Glo, 72 h; at 10 µM; stronger effect = higher value

{"Compound": "COc1cccc(-c2cc(C(F)(F)F)n3nc(N)nc3n2)c1", "differential viability (reversal) (%)": -2.71}
{"Compound": "CC(CN1CCCCC1)OC(=O)c1ccc(Cl)cc1Cl (centres undefined)", "differential viability (reversal) (%)": 7.05}
{"Compound": "COCCN(Cc1cc2cccc(C)c2[nH]c1=O)C(=O)c1ccccc1", "differential viability (reversal) (%)": 7.6}
{"Compound": "CSc1ccccc1NC(=O)c1noc2c1CCC2", "differential viability (reversal) (%)": 1.63}
